Every entry's value here was drawn from PubChem BioAssay (NCI).

// TGI lookup, one value per entry
tested on: RPMI-8226 leukemia; experiment: NCI tumour cell line growth inhibition, 48 h
propertyName: TGI

>  <compound>
Nc1nc2c(c(=O)[nH]1)NC(CCNc1ccc(C(=O)O)cc1)CN2 (stereo not given)

>  <targetSystem>
RPMI-8226 leukemia

>  <propertyName>
TGI

>  <testResult>
> 100 µM

$$$$
>  <compound>
Nc1ncnc2c1N=C(c1ccccc1)CC(c1ccccc1)N2 (stereo not given)

>  <targetSystem>
RPMI-8226 leukemia

>  <propertyName>
TGI

>  <testResult>
> 100 µM

$$$$
>  <compound>
CCOC(=O)c1cc2cc(OCc3ccccc3)ccc2[nH]1

>  <targetSystem>
RPMI-8226 leukemia

>  <propertyName>
TGI

>  <testResult>
> 100 µM

$$$$
>  <compound>
FC(F)(F)c1cnc(N/N=C(/c2ccccc2)c2ccccn2)c(Cl)c1

>  <targetSystem>
RPMI-8226 leukemia

>  <propertyName>
TGI

>  <testResult>
> 100 µM

$$$$
>  <compound>
COc1ccc(/C=N/n2c(Cc3ccccc3)n[nH]c2=O)cc1

>  <targetSystem>
RPMI-8226 leukemia

>  <propertyName>
TGI

>  <testResult>
> 100 µM

$$$$
>  <compound>
O=C1C2C(C(=O)N1CC[Se][Se]CCN1C(=O)C3C(C1=O)[C@H]1C=C[C@@H]3C1)[C@H]1C=C[C@@H]2C1 (stereo not given in full)

>  <targetSystem>
RPMI-8226 leukemia

>  <propertyName>
TGI

>  <testResult>
5.17 µM

$$$$
>  <compound>
CCN(CCCl)c1cc(CN(C)C)cc(NC(=O)c2cc(C(=O)Nc3cc(CN(C)C)cc(N(CC)CCCl)c3)n(C)n2)c1

>  <targetSystem>
RPMI-8226 leukemia

>  <propertyName>
TGI

>  <testResult>
> 100 µM

$$$$
>  <compound>
N=C(N)c1ccc(OCCCCCOc2ccc(C(=N)N)cc2)cc1

>  <targetSystem>
RPMI-8226 leukemia

>  <propertyName>
TGI

>  <testResult>
> 100 µM

$$$$
>  <compound>
Nc1ncc(Sc2ccccc2C(=O)O)s1

>  <targetSystem>
RPMI-8226 leukemia

>  <propertyName>
TGI

>  <testResult>
> 100 µM

$$$$
>  <compound>
CSC1(Cc2ccccn2)C(=O)Nc2cccc([N+](=O)[O-])c21 (stereo not given)

>  <targetSystem>
RPMI-8226 leukemia

>  <propertyName>
TGI

>  <testResult>
> 100 µM

$$$$
>  <compound>
CCN(CCNc1ccc(C)c2sc3cc(Cl)ccc3c(=O)c12)CC(C)(C)O

>  <targetSystem>
RPMI-8226 leukemia

>  <propertyName>
TGI

>  <testResult>
22.2 µM

$$$$
>  <compound>
Nc1c(-c2nc3ccccc3s2)[n+]([O-])c2ccccc2[n+]1[O-]

>  <targetSystem>
RPMI-8226 leukemia

>  <propertyName>
TGI

>  <testResult>
89.5 µM

$$$$
>  <compound>
CCc1c(C#N)c(SC(C(N)=O)c2ccccc2)nc(N2CCC(N)CC2)c1C#N (stereo not given)

>  <targetSystem>
RPMI-8226 leukemia

>  <propertyName>
TGI

>  <testResult>
34.4 µM

$$$$
>  <compound>
CC1CCN(c2cc(-c3cc4ccccc4o3)oc(=O)c2C#N)CC1

>  <targetSystem>
RPMI-8226 leukemia

>  <propertyName>
TGI

>  <testResult>
> 100 µM

$$$$
>  <compound>
Nc1c(C(=O)c2ccccc2)nnc2ccccc12

>  <targetSystem>
RPMI-8226 leukemia

>  <propertyName>
TGI

>  <testResult>
> 100 µM

$$$$

* * *

system: HCT-116 colon; assay: NCI tumour cell line growth inhibition, 48 h
Where a SMILES comes first, the peptide text is derived from it. The star is where a group is joined. Boc = CC(C)(C)OC(=O)*; tBu = CC(C)(C)*
This section presents molecules with their documented TGI values.

>  <molecule>
Cn1c(=O)n2n(c1=O)C(S(=O)c1ccccc1)C2 (configuration not stated)

>  <TGI>
> 100 µM

$$$$
>  <molecule>
Cc1cc2c(cc1C)[n+](=O)c(C(=O)/C=C/c1ccccc1[N+](=O)[O-])c(C)n2[O-]

>  <TGI>
> 100 µM

$$$$
>  <molecule>
C=C(C)[C@@H]1CC[C@]2(C(=O)n3ccnc3)CC[C@]3(C)[C@H](CC[C@@H]4[C@@]5(C)CCCNC(C)(C)[C@@H]5CC[C@]43C)[C@@H]12

>  <TGI>
2.25 µM

$$$$
>  <molecule>
FC(F)(F)c1cnc(N/N=C(/c2ccccc2)c2ccccn2)c(Cl)c1

>  <TGI>
12.1 µM

$$$$
>  <molecule>
COc1cccc2c1[C@H]1OC(=O)NC1CCCCC2 (some centres not stated)

>  <TGI>
> 100 µM

$$$$
>  <molecule>
COC(=O)c1ccccc1/C=C1\Cc2ccc3ccccc3c2C1C (configuration not stated)

>  <TGI>
46.1 µM

$$$$
>  <molecule>
c1ccc2c(c1)[O][Sn][O]2

>  <TGI>
> 150 µg/mL

$$$$
>  <molecule>
CCN(CCNc1ccc(C)c2sc3cc(Cl)ccc3c(=O)c12)CC(C)(C)O

>  <TGI>
18.2 µM

$$$$
>  <molecule>
Cc1cc(OC(=O)Nc2ccc(Cl)cc2)ccc1C(=S)Nc1ccccc1

>  <TGI>
> 100 µM

$$$$
>  <molecule>
Clc1ccc(-c2nnc(-c3nsc4ccccc34)o2)cc1

>  <TGI>
42.9 µM

$$$$
>  <molecule>
CC(OC(C)(C)C)C(NC(=O)C(N)CCCCNC(=O)OC(C)(C)C)C(=O)NC(Cc1ccccc1)C(=O)O (configuration not stated) (H-Lys(Boc)-Thr(tBu)-Phe-OH; configuration not given here)

>  <TGI>
> 100 µM

$$$$
>  <molecule>
CCN(CC)Cc1ccc(Nc2c3ccccc3nc3ccccc23)cc1

>  <TGI>
6.99 µM

$$$$
>  <molecule>
O=C1c2ccccc2-c2c1c1ccc([N+](=O)[O-])cc1c(=O)n2CCCCl

>  <TGI>
> 100 µM

$$$$
>  <molecule>
CC(=O)Oc1ccc2cc(Oc3ccccc3)c(=O)oc2c1

>  <TGI>
> 100 µM

$$$$
>  <molecule>
O=C(CN(/C=C/C(=O)C(F)(F)F)c1ccccc1)c1ccc(F)cc1

>  <TGI>
88.1 µM

$$$$
>  <molecule>
Cc1cc(-c2ccco2)cc(C)c1/C=C/c1cncc(-c2nn[nH]n2)c1

>  <TGI>
> 25 µM

$$$$
>  <molecule>
CCCC(=O)OC1C(C2COC(C)(C)O2)OC2OC(C)(C)OC21 (configuration not stated)

>  <TGI>
> 100 µM

$$$$
>  <molecule>
Cc1cc(C)c(S(=O)(=O)N(CCCN)OCCCN)c(C)c1

>  <TGI>
> 100 µM

$$$$
>  <molecule>
CC1CCN(c2cc(-c3cc4ccccc4o3)oc(=O)c2C#N)CC1

>  <TGI>
> 100 µM

$$$$
>  <molecule>
COC(=O)c1cc2ccccc2c2nc3ccccc3c(Cl)c12

>  <TGI>
> 100 µM

$$$$
>  <molecule>
O=C(/C=C\c1ccc(/C=C/C(=O)Nc2cccc(C3=NCCCN3)c2)cc1)Nc1cccc(C2=NCCCN2)c1

>  <TGI>
> 100 µM

$$$$
>  <molecule>
CC(=O)OC1CC[C@@]2(C)C(=CC[C@@H]3[C@@H]2CC[C@]2(C)C(OC(C)=O)[C@H](n4ccnc4)C[C@@H]32)C1 (some centres not stated)

>  <TGI>
31.2 µM

$$$$
>  <molecule>
CCOc1ccc(/C=C2/C(=O)N=C(N)N=C2N)cc1OCC

>  <TGI>
> 100 µM

$$$$
>  <molecule>
Cn1c(CC(O)c2nc3ccccc3n2C)nc2ccccc21 (configuration not stated)

>  <TGI>
> 34.9 µM

$$$$
>  <molecule>
O=c1[nH]nc(Cc2ccccc2)n1C1CC1

>  <TGI>
> 100 µM

$$$$
>  <molecule>
Nc1nc(-c2ccccc2)cc(-c2cc(Cl)ccc2O)n1

>  <TGI>
> 100 µM

$$$$
>  <molecule>
O=CC(O)C(O)C(OC1OC(CO)C(O)C(O)C1O)C(O)CO (configuration not stated) (tested in a mixture with another compound)

>  <TGI>
> 100 µM

$$$$
>  <molecule>
CC(C)C/C(=N\NC(=O)c1ccncc1)c1cc(Cl)ccc1O

>  <TGI>
11 µM

$$$$
>  <molecule>
O=C1C2C(C(=O)N1CC[Se][Se]CCN1C(=O)C3C(C1=O)[C@H]1C=C[C@@H]3C1)[C@H]1C=C[C@@H]2C1 (some centres not stated)

>  <TGI>
2.87 µM

$$$$
>  <molecule>
O=S(=O)(NCCCNc1nccc(-c2c(-c3cccc(F)c3)nc3occn23)n1)c1cccc2ccccc12

>  <TGI>
> 100 µM

$$$$
>  <molecule>
O=S(=O)(/N=C(\NO)Nc1ccc(Cl)cc1)c1cc(S(=O)(=O)c2ccccc2)cs1

>  <TGI>
26.4 µM

$$$$
>  <molecule>
CCC1=C(c2ccc(OC)cc2)CC[C@]2(CCNC2=O)[C@@H]1C

>  <TGI>
52.6 µM

$$$$
>  <molecule>
C1=C(c2ccccc2)C(OC2Oc3ccccc3C=C2c2ccccc2)Oc2ccccc21 (configuration not stated)

>  <TGI>
> 100 µM

$$$$
>  <molecule>
Cc1n(Cc2ccc3ccccc3n2)cc[n+]1Cc1ccc2ccccc2c1

>  <TGI>
10.4 µM

$$$$
>  <molecule>
CC(C)c1cc(C(C)C)c(Cl)c(Cl)c1O (tested in a mixture with another compound)

>  <TGI>
> 100 µM

$$$$
>  <molecule>
COc1cccc(Nc2nc(NS(=O)(=O)c3cc(C)c(Cl)cc3S)n[nH]2)c1

>  <TGI>
> 100 µM

$$$$
>  <molecule>
CC1=CC(=O)c2c(O)c3c(c(O)c2C1=O)C1C(O)C(C3=O)C23C(=O)c4c(O)c(C)cc(O)c4C(O)=C2C(=O)CC(O)C13 (configuration not stated)

>  <TGI>
2.5 µM

$$$$
